So I've got a bunch of molecules here, and I need their inhibition at 1 µM values.
- System: HCT116 (human colon tumor)
- ASSAY PROTOCOL: In vitro cytotoxicity
- Assay type: cell-based
- CONDITION SET: HCT-116, 10^−6 M, read-out: % of cellular growth inhibition
Numbers only, in %.

Look over these answered cases.
CC(C)(C)OC(=O)NCC(NC(=O)c1c[nH]c2ccccc12)c1c[nH]c2cc(Br)ccc12 (centres unmarked) ... 9
CC(C)(C)OC(=O)NCC(NC(=O)c1c[nH]c2cc(Br)ccc12)c1c[nH]c2ccccc12 (centres unmarked) ... 2
CC(C)(C)OC(=O)NCC(NC(=O)c1c[nH]c2cc(Br)ccc12)c1c[nH]c2ccc(Br)cc12 (centres unmarked) ... 9
COC(=O)C(NC(=O)c1c[nH]c2ccc(Br)cc12)c1c[nH]c2ccc(Br)cc12 (centres unmarked) ... 0

Okay, here is my list. What is inhibition at 1 µM for each of these?
1. CC(C)(C)OC(=O)NCC(NC(=O)c1c[nH]c2ccccc12)c1c[nH]c2ccc(Br)cc12 (centres unmarked)
2. CC(C)(C)OC(=O)NCC(NC(=O)c1c[nH]c2cc(Br)ccc12)c1c[nH]c2cc(Br)ccc12 (centres unmarked)

[A]
[0, 4]

Okay, here is my list. What is inhibition at 1 µM for each of these?
1. CC(C)(C)OC(=O)NCC(NC(=O)c1c[nH]c2ccc(Br)cc12)c1c[nH]c2cc(Br)ccc12 (centres unmarked)
2. O=C(NC(CO)c1c[nH]c2ccc(Br)cc12)c1c[nH]c2ccc(Br)cc12 (centres unmarked)

[A]
1: 0; 2: 0

---

So I've got a bunch of compounds here, and I need their MIC values.
- Test system: S. aureus ATCC 106414 (VISA)
- ASSAY PROTOCOL: MIC, microdilution method (9.1)
- Type: cell-based, Staphylococcus aureus
- CONDITION SET: Staphylococcus aureus, read after 18 h, read-out: MIC
Give bare numbers, in µg/mL.

CC(C)(C)OC(=O)NCC(NC(=O)c1c[nH]c2ccc(Br)cc12)c1c[nH]c2ccccc12 (stereo not drawn) ... 8
O=C(NC(CO)c1c[nH]c2ccc(Br)cc12)c1c[nH]c2ccc(Br)cc12 (stereo not drawn) ... 4
CC(NC(=O)c1c[nH]c2ccc(Br)cc12)c1c[nH]c2ccc(Br)cc12 (stereo not drawn) ... 2

[Q] Look at this compound and give its reported MIC. CC(C)(C)OC(=O)NCC(NC(=O)c1c[nH]c2cc(Br)ccc12)c1c[nH]c2ccc(Br)cc12 (stereo not drawn)
[A] 1

---

- Test system: S. mitis CIP 103335
- ASSAY PROTOCOL: MIC, microdilution method (9.1)
- Type: cell-based, Streptococcus mitis
- CONDITION SET: Streptococcus mitis, CIP103335, 18 h, read-out: MIC
- Description: The microdilution method recommended by the Clinical and Laboratory Standard Institute [M07-A8, Vol. 29, No. 2] was used. The activity of indolic compounds was tested against 29 bacterial strains belonging to 17 different species and 12 different genera (Staphylococcus, Streptococcus, Enterococcus, Listeria, Bacillus, Haemophilus, Escherichia, Klebsiella, Enterobacter, Serratia, Pseudomonas, and Acinetobacter). […]
OUTCOME MEASURE: MIC

CC(C)(C)OC(=O)NCC(NC(=O)c1c[nH]c2ccccc12)c1c[nH]c2cc(Br)ccc12 (centres unmarked) [Compound 3d] ... 64 µg/mL
CC(C)(C)OC(=O)NCC(NC(=O)c1c[nH]c2cc(Br)ccc12)c1c[nH]c2cc(Br)ccc12 (centres unmarked) [Compound 3i] ... 64 µg/mL
CC(C)(C)OC(=O)NCC(NC(=O)c1c[nH]c2ccc(Br)cc12)c1c[nH]c2ccccc12 (centres unmarked) [Compound 3c] ... 64 µg/mL
O=C(NC(C(=O)NCCCCO)c1c[nH]c2ccc(Br)cc12)c1c[nH]c2ccc(Br)cc12 (centres unmarked) [Compound 15] ... > 128 µg/mL
CC(C)(C)OC(=O)NCC(NC(=O)c1ccccc1)c1c[nH]c2ccc(Br)cc12 (centres unmarked) [Compound 8] ... > 128 µg/mL

Okay, here is my list. What is MIC for each of these?
1. NCCCCNC(=O)C(NC(=O)c1c[nH]c2ccc(Br)cc12)c1c[nH]c2ccc(Br)cc12 (centres unmarked) [Compound 16]
2. CC(C)(C)OC(=O)NCC(NC(=O)C(F)(F)F)c1c[nH]c2ccc(Br)cc12 (centres unmarked) [Compound 9]
3. O=C(NC(C(=O)NCCO)c1c[nH]c2ccc(Br)cc12)c1c[nH]c2ccc(Br)cc12 (centres unmarked) [Compound 14]

[A]
1: > 128 µg/mL; 2: > 128 µg/mL; 3: > 128 µg/mL

---

- System: S. aureus ATCC 106414 (VISA)
- ASSAY PROTOCOL: MIC, microdilution method (9.1)
- Type: cell-based, Staphylococcus aureus
- CONDITION SET: Staphylococcus aureus, read after 18 h, read-out: MIC
So I've got a bunch of compounds here, and I need their MIC values.

Okay, here is my list. What is MIC for each of these?
1. CC(C)(C)OC(=O)NCC(NC(=O)c1c[nH]c2cc(Br)ccc12)c1c[nH]c2cc(Br)ccc12 (centres unmarked)
2. CC(NC(=O)c1c[nH]c2ccc(F)cc12)c1c[nH]c2ccc(Br)cc12 (centres unmarked)
3. NCCCCNC(=O)C(NC(=O)c1c[nH]c2ccc(Br)cc12)c1c[nH]c2ccc(Br)cc12 (centres unmarked)
4. COC(=O)C(NC(=O)c1c[nH]c2ccc(Br)cc12)c1c[nH]c2ccc(Br)cc12 (centres unmarked)
5. CC(C)(C)OC(=O)NCC(NC(=O)c1cccnc1)c1c[nH]c2ccc(Br)cc12 (centres unmarked)

[A]
1 µg/mL
16 µg/mL
8 µg/mL
4 µg/mL
> 128 µg/mL

---

So I've got a bunch of compounds here, and I need their inhibition at 1 µM values.
- System: HCT116 (human colon tumor)
- ASSAY PROTOCOL: In vitro cytotoxicity
- Assay type: cell-based
- CONDITION SET: HCT-116, 10^−6 M, read-out: % of cellular growth inhibition
Give bare numbers, in %.

CC(C)(C)OC(=O)NCC(NC(=O)c1c[nH]c2ccc(Br)cc12)c1c[nH]c2ccc(Br)cc12 (centres unmarked) ... 0
CC(C)(C)OC(=O)NCC(NC(=O)c1c[nH]c2ccc(Br)cc12)c1c[nH]c2ccccc12 (centres unmarked) ... 11
CC(NC(=O)c1c[nH]c2ccc(Br)cc12)c1c[nH]c2ccc(Br)cc12 (centres unmarked) ... 0
CC(C)(C)OC(=O)NCC(NC(=O)c1c[nH]c2ccc(Cl)cc12)c1c[nH]c2ccc(Cl)cc12 (centres unmarked) ... 0
CC(C)(C)OC(=O)NCC(NC(=O)c1c[nH]c2cc(Cl)ccc12)c1c[nH]c2ccc(Cl)cc12 (centres unmarked) ... 0

Okay, here is my list. What is inhibition at 1 µM for each of these?
1. O=C(NC(C(=O)O)c1c[nH]c2ccc(Br)cc12)c1c[nH]c2ccc(Br)cc12 (centres unmarked)
2. CC(C)(C)OC(=O)NCC(NC(=O)c1c[nH]c2ccccc12)c1c[nH]c2ccccc12 (centres unmarked)
3. Cn1cc(C(=O)NC(CNC(=O)OC(C)(C)C)c2c[nH]c3ccc(Br)cc23)c2cc(Br)ccc21 (centres unmarked)

[A]
1: 0; 2: 11; 3: 8

---

So I've got a bunch of compounds here, and I need their inhibition at 1 µM values.
- Test system: KB (human mouth carcinoma)
- ASSAY PROTOCOL: In vitro cytotoxicity
- Format: cell-based
- CONDITION SET: 10^−6 M, read-out: % of cellular growth inhibition
Give bare numbers, in %.

COC(=O)C(NC(=O)c1c[nH]c2ccc(Br)cc12)c1c[nH]c2ccc(Br)cc12 (stereo not shown) ... 0
O=C(NC(C(=O)O)c1c[nH]c2ccc(Br)cc12)c1c[nH]c2ccc(Br)cc12 (stereo not shown) ... 0
CC(C)(C)OC(=O)NCC(NC(=O)c1c[nH]c2cc(Br)ccc12)c1c[nH]c2ccc(Br)cc12 (stereo not shown) ... 0
O=C(NC(CO)c1c[nH]c2ccc(Br)cc12)c1c[nH]c2ccc(Br)cc12 (stereo not shown) ... 0
CC(C)(C)OC(=O)NCC(NC(=O)c1c[nH]c2ccccc12)c1c[nH]c2ccccc12 (stereo not shown) ... 16
CC(C)(C)OC(=O)NCC(NC(=O)c1c[nH]c2ccc(Br)cc12)c1c[nH]c2ccccc12 (stereo not shown) ... 0
CC(NC(=O)c1c[nH]c2ccc(Br)cc12)c1c[nH]c2ccc(Br)cc12 (stereo not shown) ... 0
CC(C)(C)OC(=O)NCC(NC(=O)c1c[nH]c2ccccc12)c1c[nH]c2ccc(Br)cc12 (stereo not shown) ... 0

Okay, here is my list. What is inhibition at 1 µM for each of these?
1. CC(C)(C)OC(=O)NCC(NC(=O)c1c[nH]c2ccc(Br)cc12)c1c[nH]c2cc(Br)ccc12 (stereo not shown)
2. CC(C)(C)OC(=O)NCC(NC(=O)c1c[nH]c2ccc(Br)cc12)c1c[nH]c2ccc(Br)cc12 (stereo not shown)

[A]
[0, 0]
